System: BT-549
TEST_NAME: normalised response (% of control), CellTox Green; higher = less cell death (100 = DMSO, 0 = benzethonium chloride kill control)
CONDITION_SUMMARY: incubation time: 72 h
ASSAY_READOUT: normalised response (%)
Report only the number, with the unit % understood.

Take a look at these entries with their results.
| COMPOUND | UNITS | normalised response |
| --- | --- | --- |
| C[C@]12C=CC(=O)C=C1CC[C@@H]1[C@@H]2[C@@H](O)C[C@@]2(C)[C@H]1CC[C@]2(O)C(=O)CO [Prednisolone] (100 nM) | % | 97.2 |
| Cc1ccc(Nc2nccc(N(C)c3ccc4c(C)n(C)nc4c3)n2)cc1S(N)(=O)=O [Pazopanib] (10000 nM) | % | 119 |
| O=S(=O)(c1cccc2cnccc12)N1CCCNCC1 [Fasudil] (50000 nM) | % | 97.4 |
| CNC(=O)c1cc(Oc2ccc(NC(=O)Nc3ccc(Cl)c(C(F)(F)F)c3)cc2)ccn1 [Sorafenib] (10 nM) | % | 108 |
| Cc1c(CN2CCN(C(=O)[C@H](C)O)CC2)sc2c(N3CCOCC3)nc(-c3cnc(N)nc3)nc12 [GDC-0980] (10000 nM) | % | 95.2 |

Pending compound:
Qu. So what does the record say about normalised response for CO[C@@H](C(=O)N1Cc2[nH]nc(NC(=O)c3ccc(N4CCN(C)CC4)cc3)c2C1)c1ccccc1 [Danusertib] (100 nM) ?
Ans. 101
